# Tested on: biotinyl-Trp-oxazolone
# assay-method-text: self-aminoacylation, catalytic enhancement (BWO) (fold over background); higher = more active; k-Seq, kA / k0A0; sequences stand for … in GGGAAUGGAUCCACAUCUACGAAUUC…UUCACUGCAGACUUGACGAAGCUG
Variants at the floor of the assay were thinned out.
Label scheme for self-aminoacylation: lower than 5 is not met, 5 and above is met.

CCAUACUUCAACCAAUCGGUC [Fam1B.1 aminoacylation ribozyme variant]: met
AUUGCCCUGGUCAACGAGUGA [Fam2.1 aminoacylation ribozyme variant]: met
CUACUUCAACCAAUCGGUCUC [Fam1A.1 aminoacylation ribozyme variant]: met
AUUACUCCGGUCAUCGAGUGA [Fam2.1 aminoacylation ribozyme variant]: met
CCACACUUCAAGGAAUCUGUC [Fam1B.1 aminoacylation ribozyme variant]: not met
AUUCACCUAGGCCAUCCGGUG [Fam2.2 aminoacylation ribozyme variant]: met
AUUCACCUUGGUUAUCGGGUG [Fam2.2 aminoacylation ribozyme variant]: met
AAGUUUGAUAAUAGUCGUAAG [Fam3.1 aminoacylation ribozyme variant]: not met
CUACUUAAAACAAUCGGUCCG [Fam1A.1 aminoacylation ribozyme variant]: not met
CUCCACCUAGGUCAUCGGGUG [Fam2.2 aminoacylation ribozyme variant]: met

*Q* Quick check, self-aminoacylation >= 5? CUACUUCACACAACCGGUCUG [Fam1A.1 aminoacylation ribozyme variant]
*A* not met

*Q* Quick check, self-aminoacylation >= 5? CCGCACUUCAAGCAAUCGGCC [Fam1B.1 aminoacylation ribozyme variant]
*A* met

*Q* Quick check, self-aminoacylation >= 5? AAGUAUGCUAAUAGGCGCAAG [Fam3.1 aminoacylation ribozyme variant]
*A* not met

*Q* Quick check, self-aminoacylation >= 5? AUUACCCUGGUCUUGGAGUGA [Fam2.1 aminoacylation ribozyme variant]
*A* not met

*Q* Quick check, self-aminoacylation >= 5? AUUACCCUUGUCAUAGAGUGA [Fam2.1 aminoacylation ribozyme variant]
*A* met

*Q* Quick check, self-aminoacylation >= 5? AUUCACCUAGGUCGUCCGGUG [Fam2.2 aminoacylation ribozyme variant]
*A* not met

*Q* Quick check, self-aminoacylation >= 5? CUUCUUCAAACAAUCGUUCUG [Fam1A.1 aminoacylation ribozyme variant]
*A* not met

*Q* Quick check, self-aminoacylation >= 5? AUUCACCUCGGUCAACGGGUG [Fam2.2 aminoacylation ribozyme variant]
*A* not met

*Q* Quick check, self-aminoacylation >= 5? AUUACCCUGGACAUUGAGUGA [Fam2.1 aminoacylation ribozyme variant]
*A* met

###

# Test system: biotinyl-Leu-oxazolone
# assay-method-text: self-aminoacylation, catalytic enhancement (BLO) (fold over background); higher = more active; k-Seq, kA / k0A0; sequences stand for … in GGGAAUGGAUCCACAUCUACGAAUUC…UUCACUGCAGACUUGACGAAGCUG
Fewer inactive variants are shown than the library holds.
Catalogue of self-aminoacylation values

Below, each entry is followed by its recorded self-aminoacylation result.
UCACACUUGAAGCAAUCGGUC [Fam1B.1 aminoacylation ribozyme variant]: 0.751
CUAAUUCAAUCAAUCGGUCUG [Fam1A.1 aminoacylation ribozyme variant]: 0.735
AUUCACCUGGUUCAUCGGGUG [Fam2.2 aminoacylation ribozyme variant]: 3.19

The record that follows has no self-aminoacylation shown yet.
*Q* Report value: self-aminoacylation, system: biotinyl-Leu-oxazolone, sequence: AUACACCUAGGUCAUCGGGGG [Fam2.2 aminoacylation ribozyme variant]
*A* 1.39
